tested_on: MEKK2 (Homo sapiens, UniProt Q9Y2U5)
Sequence (Q9Y2U5 1-619): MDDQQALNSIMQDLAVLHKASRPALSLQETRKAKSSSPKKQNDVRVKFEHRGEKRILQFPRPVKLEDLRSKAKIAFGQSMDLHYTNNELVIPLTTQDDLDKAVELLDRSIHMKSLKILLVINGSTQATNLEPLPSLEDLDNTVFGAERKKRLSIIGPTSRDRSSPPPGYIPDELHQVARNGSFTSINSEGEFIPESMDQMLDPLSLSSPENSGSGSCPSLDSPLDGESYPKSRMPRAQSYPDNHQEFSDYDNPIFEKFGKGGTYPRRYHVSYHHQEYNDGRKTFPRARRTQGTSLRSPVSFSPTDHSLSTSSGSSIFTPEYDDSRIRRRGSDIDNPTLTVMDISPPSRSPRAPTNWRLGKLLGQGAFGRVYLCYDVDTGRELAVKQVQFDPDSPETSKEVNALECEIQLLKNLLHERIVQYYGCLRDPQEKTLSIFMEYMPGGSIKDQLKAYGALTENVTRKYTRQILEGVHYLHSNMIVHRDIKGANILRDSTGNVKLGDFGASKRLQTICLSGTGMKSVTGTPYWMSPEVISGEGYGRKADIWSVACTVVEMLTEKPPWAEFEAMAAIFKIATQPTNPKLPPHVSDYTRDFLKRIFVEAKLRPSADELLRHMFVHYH
Quick reference: IC50 of the listed items.

In the examples that follow, each entry is paired with its recorded IC50.
CCCS(=O)(=O)Nc1ccc(F)c(C(=O)c2n[nH]c3ncc(-c4ccc(S(=O)(=O)NC(C)=O)cc4)cc23)c1F [Example 51k]	> 10 µM
CCCS(=O)(=O)Nc1ccc(F)c(C(=O)c2n[nH]c3ncc(-c4ccc(N)cc4)cc23)c1F	1 to 10 µM
CCCS(=O)(=O)Nc1ccc(F)c(C(=O)c2n[nH]c3ncc(-c4ccccc4)cc23)c1F	> 10 µM
CCCCS(=O)(=O)Nc1ccc(F)c(C(=O)c2n[nH]c3ncc(-c4ccc(S(N)(=O)=O)cc4)cc23)c1F [Example 51c]	1 to 10 µM
CCCS(=O)(=O)Nc1ccc(F)c(C(=O)c2n[nH]c3ncc(-c4ccc(S(=O)(=O)NCC(O)CO)cc4)cc23)c1F (stereo not shown) [Example 51j]	> 10 µM

Form field: reported IC50 of CCCS(=O)(=O)Nc1ccc(F)c(C(=O)c2n[nH]c3ncc(-c4ccc(NS(C)(=O)=O)cc4)cc23)c1F [Example 51g]
1 to 10 µM

Form field: reported IC50 of CCCS(=O)(=O)Nc1ccc(F)c(C(=O)c2n[nH]c3ncc(-c4ccc(-c5nnn[nH]5)cc4)cc23)c1F [Example 51e]
1 to 10 µM

----------
tested_on: MKK4-MEKK2 mix (Homo sapiens)
Construct: MEKK2, recombinant, active: ProQinase product #0583-0000-1
Sequence (P45985 2-399): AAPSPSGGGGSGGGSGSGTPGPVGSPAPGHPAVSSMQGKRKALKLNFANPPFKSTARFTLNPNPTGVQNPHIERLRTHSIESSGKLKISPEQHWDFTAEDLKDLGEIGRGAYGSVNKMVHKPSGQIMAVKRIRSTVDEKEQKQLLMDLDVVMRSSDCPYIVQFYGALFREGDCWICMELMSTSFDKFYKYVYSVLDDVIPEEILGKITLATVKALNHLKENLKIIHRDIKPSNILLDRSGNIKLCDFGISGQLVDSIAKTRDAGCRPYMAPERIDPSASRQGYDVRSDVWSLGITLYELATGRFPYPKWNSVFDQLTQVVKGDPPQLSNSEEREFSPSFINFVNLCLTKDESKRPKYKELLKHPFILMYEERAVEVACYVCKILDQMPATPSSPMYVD
assay_notes: Radiometric protein kinase assay, MEKK2 dependent MKK4 activation (cascade)
measurement_context: substrate JNK1 KRKR, ATP 0.2 μM, read-out: Cascade, potency derived from IC50-values
readout_type: IC50

CCCS(=O)(=O)Nc1ccc(F)c(C(=O)c2n[nH]c3ncc(-c4cccc(N)c4)cc23)c1F [Example 27]	500 to 1000 nM
CCCS(=O)(=O)Nc1ccc(F)c(C(=O)c2n[nH]c3ncc(-c4ccc(S(C)(=O)=O)cc4)cc23)c1F [Example 24]	> 10000 nM
CCCS(=O)(=O)Nc1ccc(F)c(C(=O)c2n[nH]c3ncc(-c4ccc(S(=O)(=O)NCC(O)CO)cc4)cc23)c1F (stereo not shown) [Example 51j]	1000 to 10000 nM
CCCS(=O)(=O)Nc1ccc(F)c(C(=O)c2n[nH]c3ncc(-c4ccc(F)cc4)cc23)c1F [Example 25]	1000 to 10000 nM
CCCS(=O)(=O)Nc1ccc(F)c(C(=O)c2n[nH]c3ncc(-c4cccc(OC)c4)cc23)c1F [Example 17]	1000 to 10000 nM

// next entry
Form field: reported IC50 of CCCS(=O)(=O)Nc1ccc(F)c(C(=O)c2n[nH]c3ncc(-c4ccc(S(N)(=O)=O)cc4F)cc23)c1F [Example 51m]
1000 to 10000 nM

----------
tested_on: MKK4 (Homo sapiens, UniProt P45985)
Construct: S84/D399; host or cells: HEK-293
assay_notes: KINOMEscan competition binding assay, MKK4 potency
measurement_context: concentration of 100 nM
readout_type: MKK4, residual percent of control binding (PoC)

In the examples that follow, each entry is paired with its recorded MKK4, residual percent of control binding (PoC).
CCCS(=O)(=O)Nc1ccc(F)c(C(=O)c2n[nH]c3ncc(-c4ccc(-c5nnn[nH]5)cc4)cc23)c1F [Example 51e]	+++ (PoC < 1)
CCCS(=O)(=O)Nc1ccc(F)c(C(=O)c2n[nH]c3ncc(-c4ccc(S(=O)(=O)NC(C)=O)cc4)cc23)c1F [Example 51k]	+++ (PoC < 1)
CCCS(=O)(=O)Nc1ccc(F)c(C(=O)c2n[nH]c3ncc(-c4cccc(OC)c4)cc23)c1F [Example 17]	++ (1 ≤ PoC < 10)
CCCS(=O)(=O)Nc1ccc(F)c(C(=O)c2n[nH]c3ncc(-c4ccc(S(=O)(=O)NCC(O)CO)cc4)cc23)c1F (stereo not drawn) [Example 51j]	++ (1 ≤ PoC < 10)
CCCS(=O)(=O)Nc1ccc(F)c(C(=O)c2n[nH]c3ncc(-c4ccc(F)cc4)cc23)c1F [Example 25]	++ (1 ≤ PoC < 10)
CCCS(=O)(=O)Nc1ccc(F)c(C(=O)c2n[nH]c3ncc(-c4ccccc4Cl)cc23)c1F [Example 9]	++ (1 ≤ PoC < 10)
CCCS(=O)(=O)Nc1ccc(F)c(C(=O)c2n[nH]c3ncc(-c4ccccc4)cc23)c1F [Example 2]	++ (1 ≤ PoC < 10)
CCCS(=O)(=O)Nc1ccc(F)c(C(=O)c2n[nH]c3ncc(-c4ccc(C(C)C)cc4)cc23)c1F [Example 11]	+ (10 ≤ PoC < 30)
CCCS(=O)(=O)Nc1ccc(F)c(C(=O)c2n[nH]c3ncc(-c4ccc(C(C)(C)C)cc4)cc23)c1F [Example 10]	O (PoC ≥ 30)
CCCS(=O)(=O)Nc1ccc(F)c(C(=O)c2n[nH]c3ncc(-c4cccc(C)c4)cc23)c1F [Example 29]	+ (10 ≤ PoC < 30)

What reported MKK4, residual percent of control binding (PoC) corresponds to CCCS(=O)(=O)Nc1ccc(F)c(C(=O)c2n[nH]c3ncc(-c4ccc(Cl)cc4Cl)cc23)c1F [Example 35] on MKK4 (Homo sapiens, UniProt P45985)?
+ (10 ≤ PoC < 30)

What reported MKK4, residual percent of control binding (PoC) corresponds to CCCS(=O)(=O)Nc1ccc(F)c(C(=O)c2n[nH]c3ncc(-c4ccc(C(=O)NCC(O)CO)cc4)cc23)c1F (stereo not drawn) [Example 51l] on MKK4 (Homo sapiens, UniProt P45985)?
+++ (PoC < 1)

What reported MKK4, residual percent of control binding (PoC) corresponds to CCCS(=O)(=O)Nc1ccc(F)c(S(=O)(=O)c2n[nH]c3ncc(-c4ccc(Cl)cc4)cc23)c1F [Example 48] on MKK4 (Homo sapiens, UniProt P45985)?
O (PoC ≥ 30)

What reported MKK4, residual percent of control binding (PoC) corresponds to CCCS(=O)(=O)Nc1ccc(F)c(C(=O)c2n[nH]c3ncc(-c4cccc(F)c4)cc23)c1F [Example 16] on MKK4 (Homo sapiens, UniProt P45985)?
++ (1 ≤ PoC < 10)

What reported MKK4, residual percent of control binding (PoC) corresponds to CCCS(=O)(=O)Nc1ccc(F)c(C(=O)c2n[nH]c3ncc(-c4cccc(O)c4)cc23)c1F [Example 37] on MKK4 (Homo sapiens, UniProt P45985)?
++ (1 ≤ PoC < 10)

----------
Quick reference: pIC50 of the listed items.
tested_on: UniProtKB P45985
pIC50: −log10 of the molar value.

In the examples that follow, each entry is paired with its recorded pIC50.
CCCS(=O)(=O)Nc1ccc(F)c(C(=O)c2n[nH]c3ncc(-c4ccc(-c5nnn[nH]5)cc4)cc23)c1F [Example 51e]	> 6.30
CCCS(=O)(=O)Nc1c(F)ccc(C(=O)c2n[nH]c3ncc(-c4ccccc4Cl)cc23)c1F	> 6.30
CCCS(=O)(=O)Nc1ccc(F)c(C(=O)c2n[nH]c3ncc(-c4cccc(N)c4)cc23)c1F	> 6.30
CCCS(=O)(=O)Nc1ccc(F)c(C(=O)c2n[nH]c3ncc(-c4ccc(C(N)=O)cc4)cc23)c1F [Example 51f]	> 6.30
CS(=O)(=O)Nc1c(F)ccc(C(=O)c2n[nH]c3ncc(-c4ccc(-c5nnn[nH]5)cc4)cc23)c1F [Example 54a]	> 6.30
CCCS(=O)(=O)Nc1ccc(F)c(C(=O)c2n[nH]c3ncc(-c4ccccc4)cc23)c1F	> 6.30
CCCS(=O)(=O)Nc1ccc(F)c(C(=O)c2n[nH]c3ncc(-c4ccc(C(=O)NCC(O)CO)cc4)cc23)c1F (centres unmarked) [Example 51l]	6.00 to 6.30
CS(=O)(=O)Nc1c(F)ccc(C(=O)c2n[nH]c3ncc(-c4ccc(C(N)=O)cc4)cc23)c1F [Example 54b]	> 6.30

Form field: reported pIC50 of CCCS(=O)(=O)Nc1ccc(F)c(C(=O)c2n[nH]c3ncc(-c4ccccc4Cl)cc23)c1F
6.00 to 6.30

Form field: reported pIC50 of CCCS(=O)(=O)Nc1ccc(F)c(C(=O)c2n[nH]c3ncc(-c4ccc(S(=O)(=O)NC(C)=O)cc4)cc23)c1F [Example 51k]
> 6.30
